Experiment: qHTS Assay for Foot and Mouth Disease Virus Antivirals: Primary Screen against the MLPCN compound library; further: nearly all actives have a fitted effect of over 55% in size
Settings: FMDV antiviral cell-based qHTS; series mostly up to 57.9 µM
Among all 410,000 compounds or so, about 2,000 (0.49%) were called active. Inconclusive results (about 8%) are left out. The call rests on the fitted dose curve; tested in HEK293 reporter line. This is one part of a sample in which actives are shown more often than they occur.
Respond using exactly one of the listed classes: t (active), f (inactive)

Here's what some known entries look like.
# compound, category-label
records = [
    ("Cc1oc(-c2ccc(Cl)cc2)nc1CN1CCCC(C(=O)NCc2cccnc2)C1 (stereo unspecified)", "f"),
    ("CN(CCOc1ccc(Cl)cc1)CC(=O)Nc1ccc(OC(F)(F)F)cc1", "f"),
    ("CCCN(CCC)CCCNC(=O)C1CCCN(Cc2nc(-c3ccc(Cl)cc3)oc2C)C1 (stereo unspecified)", "f"),
]

Incoming: Which result was noted for this compound in the test: CC1CCCCN1C(=O)CSc1c2c(nc3cc(Cl)ccc13)CCCC2 (stereo unspecified)
Outgoing: f

###

Assay: qHTS Assay for Foot and Mouth Disease Virus Antivirals: Primary Screen against the MLPCN compound library; further: nearly all actives have a fitted effect of over 55% in size
Conditions: FMDV antiviral cell-based qHTS; series mostly up to 57.9 µM
About 2,000 (0.49%) of roughly 410,000 compounds were called active. Not shown: some 8% with an inconclusive outcome. Calls follow the shape of the full dose curve; tested in HEK293 reporter line. What follows is part of a selection rich in actives, with near analogues and random picks from the rest.
Give your call using only these classes: active, inactive

# compound, category-label
measured = [
    ("CCOc1cc(CNCc2ccncc2)cc(Br)c1OCc1ccccc1F", "inactive"),
    ("COC(=O)C1=C(c2ccc(-c3ccccc3)c(F)c2)C[C@@H]2CC[C@H]1N2C(=O)NC1CCCCC1", "inactive"),
    ("CC(=O)Nc1scc(C)c1-c1nc2ccccc2s1", "inactive"),
    ("COCc1ccc(C(=O)Nc2cccc(S(=O)(=O)N(C)c3ccccc3)c2)cc1", "active"),
    ("CN(c1ccccc1)S(=O)(=O)c1cccc(C(=O)Nc2cccc(C(=O)NC3CC3)c2)c1", "inactive"),
    ("Brc1ccc(OCc2ccccc2)c(CNCc2ccncc2)c1", "active"),
    ("CCOc1ccc(N2C(=O)S/C(=C\\c3cc(OC)c(OC)c(OC)c3)C2=O)cc1", "active"),
    ("O=C(NCCCCc1ccccc1)NC[C@@H]1CC[C@@H](Cc2ccc(-c3ccccc3)cc2)O1", "inactive"),
]

Incoming: Answer briefly: the call reported for COC(=O)c1ccc(CSc2ncnc3ccccc23)o1 in this assay.
Outgoing: inactive

Incoming: Given CN(c1ccccc1)S(=O)(=O)c1ccc(C(=O)Nc2ccncc2)cc1 , state the outcome it received in this test.
Outgoing: inactive

Incoming: Could you check what this test reported for COc1cccc(-n2cnc3scc(-c4cccs4)c3c2=O)c1 ?
Outgoing: inactive

Incoming: I'd appreciate the recorded outcome for CCCC(=O)Nc1ccc2nc(C)n(Cc3ccccc3Cl)c(=O)c2c1 from this test.
Outgoing: inactive

Incoming: Give the logged outcome of this assay for the following compound: O=C1NC(=O)N(CCc2ccc(F)cc2)C(=O)/C1=C/C=C/c1ccccc1
Outgoing: active

Incoming: Hey, what did the test say about CCCNC(=O)c1ccc(-c2nc3ccccc3s2)s1 ?
Outgoing: active

Incoming: Which outcome was entered for the compound Cc1noc(C)c1COc1ccc(C(=O)N2CCN(c3ccccn3)CC2)cc1 in this test?
Outgoing: inactive

Incoming: Dear all, I need the recorded test outcome for CN(CC(=O)NCc1ccccc1)CC(=O)Nc1ccc(Cl)c(C(F)(F)F)c1 , thank you.
Outgoing: inactive
